As shown below, each of these compounds has a reported diameter of the inhibition zone (DIZ) value.
# Test system: Staphylococcus epidermidis
# test-summary: Antibacterial activity against Staphylococcus epidermidis NCIM 2493 assessed as diameter of growth zone inhibition after 24 hr by disk diffusion method; note: test concentration or dose not given here
# Assay type: functional
Write the answer as a number in mm, unit excluded.

Worked cases, diameter of the inhibition zone (DIZ) given:
Cc1cc(/N=C2\C(=O)Nc3ccc([N+](=O)[O-])cc32)ccc1N1C(=O)c2ccc(Cl)cc2C1=O	20
C#CCN1C(=O)/C(=N\c2ccc(N3C(=O)c4ccc(Cl)cc4C3=O)c(C)c2)c2cc([N+](=O)[O-])ccc21	8
Cc1cc(/N=C2\C(=O)N(S(C)(=O)=O)c3ccc([N+](=O)[O-])cc32)ccc1N1C(=O)c2ccc(Cl)cc2C1=O	18
Cc1cc(/N=C2\C(=O)N(S(C)(=O)=O)c3ccc(OC(F)(F)F)cc32)ccc1N1C(=O)c2ccc(Cl)cc2C1=O	18
Cc1cc(/N=C2\C(=O)N(S(=O)(=O)c3ccc([N+](=O)[O-])cc3)c3ccc([N+](=O)[O-])cc32)ccc1N1C(=O)c2ccc(Cl)cc2C1=O	20
Cc1cc(/N=C2\C(=O)N(S(=O)(=O)c3ccc([N+](=O)[O-])cc3)c3ccc(OC(F)(F)F)cc32)ccc1N1C(=O)c2ccc(Cl)cc2C1=O	18

Given item Cc1cc(/N=C2\C(=O)N(Cc3ccccc3)c3ccc(OC(F)(F)F)cc32)ccc1N1C(=O)c2ccc(Cl)cc2C1=O , the value recorded as its diameter of the inhibition zone (DIZ) is 8

* * *

# System: Pseudomonas aeruginosa
# test-summary: Antibacterial activity against Pseudomonas aeruginosa NCIM 2036 assessed as diameter of growth zone inhibition after 24 hr by disk diffusion method; note: test concentration or dose not given here
# Assay type: functional
test-readout: diameter of the inhibition zone (DIZ) (mm)
Write the answer as a number in mm, unit excluded.

Worked cases, diameter of the inhibition zone (DIZ) given:
Cc1cc(/N=C2\C(=O)N(Cc3ccccc3)c3ccc([N+](=O)[O-])cc32)ccc1N1C(=O)c2ccc(Cl)cc2C1=O	14
Cc1cc(/N=C2\C(=O)N(S(C)(=O)=O)c3ccc(OC(F)(F)F)cc32)ccc1N1C(=O)c2ccc(Cl)cc2C1=O	14
Cc1cc(/N=C2\C(=O)N(S(C)(=O)=O)c3ccc([N+](=O)[O-])cc32)ccc1N1C(=O)c2ccc(Cl)cc2C1=O	18

Given item Cc1cc(/N=C2\C(=O)Nc3ccc([N+](=O)[O-])cc32)ccc1N1C(=O)c2ccc(Cl)cc2C1=O , the value recorded as its diameter of the inhibition zone (DIZ) is 18

Given item C#CCN1C(=O)/C(=N\c2ccc(N3C(=O)c4ccc(Cl)cc4C3=O)c(C)c2)c2cc(OC(F)(F)F)ccc21 , the value recorded as its diameter of the inhibition zone (DIZ) is 12

Given item Cc1ccc2c(c1)/C(=N/c1ccc(N3C(=O)c4ccc(Cl)cc4C3=O)c(C)c1)C(=O)N2 , the value recorded as its diameter of the inhibition zone (DIZ) is 16

Given item C#CCN1C(=O)/C(=N\c2ccc(N3C(=O)c4ccc(Cl)cc4C3=O)c(C)c2)c2cc([N+](=O)[O-])ccc21 , the value recorded as its diameter of the inhibition zone (DIZ) is 14

Given item Cc1cc(/N=C2\C(=O)N(S(=O)(=O)c3ccc([N+](=O)[O-])cc3)c3ccc([N+](=O)[O-])cc32)ccc1N1C(=O)c2ccc(Cl)cc2C1=O , the value recorded as its diameter of the inhibition zone (DIZ) is 18

Given item CCCN1C(=O)/C(=N\c2ccc(N3C(=O)c4ccc(Cl)cc4C3=O)c(C)c2)c2cc([N+](=O)[O-])ccc21 , the value recorded as its diameter of the inhibition zone (DIZ) is 10

Given item O=C(O)c1cn(C2CC2)c2cc(N3CCNCC3)c(F)cc2c1=O , the value recorded as its diameter of the inhibition zone (DIZ) is 24
